Listing of entries alongside the reported aptazyme ON/OFF ratio.
B1: Pistol ribozyme (parent)
chain: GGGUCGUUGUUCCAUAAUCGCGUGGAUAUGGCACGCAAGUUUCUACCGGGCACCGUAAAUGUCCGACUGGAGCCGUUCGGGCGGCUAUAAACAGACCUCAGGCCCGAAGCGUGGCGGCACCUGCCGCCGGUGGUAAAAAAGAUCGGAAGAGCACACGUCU

variants of: B1; test: aptazyme ON/OFF ratio, guanine; higher = stronger switching; co-transcriptional cleavage with and without guanine

mut	aptazyme ON/OFF ratio
U7G U10A U11G C12U C13A	1.17
U7G G9C U10C C12A C13A	1.16
U8G G9U U10A U11A C12A C13U	1.22
U7A U10G	1.56
U7G U8G U11G C12A C13G	1.21
U8C G9U U10A C13G	1.06
G9C U10A C12G C13U	1.22
U7A G9U U10A C13A	1.08
U7C U8G G9C U11G C12G	1.19
U7C U8A G9A U10G U11A C13U	1.03
U7A U8C G9U U10C U11G C12G C13G	1.11
U7G U8G G9C U10A U11G C12A	1.05
U7C G9C U10G U11C C13G	1.04
U7G U8C U11G C12U	1.28
U7C U8G G9C C12U C13U	1.2
U7G U8G G9A U10G U11C C12U	1.27
U7C U8G G9A U10C	3.63
G9C U10A U11C C12A C13G	1.18
U10A U11C C12U C13U	1.03
U8A U10A U11A C12U	1.09
U7A U8G G9U C12G C13U	1.33
G9A U10C U11A C12U	1.78
